- Tested on: Ramos B-Cell Line Stimulated with IL-4 (JAK-1 and JAK-3 / Stat-6, CD23)
- EXPERIMENTAL_PROTOCOL: Assay for Ramos B-Cell Line Stimulated with IL-4 (CD23 upregulation, FACS)
- Type: cell-based
- CONDITION_DETAILS: human Ramos B cells, compound 1 hour, IL-4 50 units/mL for 20-24 hours, anti-CD23-PE FACS; read-out: Example 2 (IC50)
MEASUREMENT_TYPE: pIC50
By convention, pIC50 is the negative base-10 log of a molar concentration.

Give the measured pIC50 of `CCn1nccc1NC(=O)c1ccc(Nc2ncc(F)c(Nc3ccc(OC)c(Cl)c3)n2)cc1` .
6.93

Which pIC50 value belongs to `Cc1noc(COc2ccc(Nc3nc(Nc4ccc(C(N)=O)cc4)ncc3F)cc2)n1` ?
8.31

Value lookup for pIC50; key = `CNC(=O)COc1cccc(Nc2ncc(C)c(Nc3ccc4c(c3)NC(=O)C(F)(F)O4)n2)c1`
7.01

Endpoint output: pIC50 of `CNC(=O)COc1cc(Nc2ncc(F)c(Nc3ccc4c(n3)NCC(C)(C)O4)n2)cc(OC)c1OC` . Value?
7.12

* * *

Kindly supply the reported pIC50 values for the records listed here.
- Test system: Ramos B-Cell Line Stimulated with IL-4 (JAK-1 and JAK-3 / Stat-6, CD23)
- EXPERIMENTAL_PROTOCOL: Assay for Ramos B-Cell Line Stimulated with IL-4 (CD23 upregulation, FACS)
- Type: cell-based
- CONDITION_DETAILS: human Ramos B cells, compound 1 hour, IL-4 50 units/mL for 20-24 hours, anti-CD23-PE FACS; read-out: Example 2 (IC50)
Note: pIC50 values are expressed as the negative base-10 logarithm of concentration in M.

For the compound shown here, CC(C#N)Oc1ccc(Nc2nc(Nc3cccc(C#N)c3)ncc2F)cc1 (centres unmarked) , give the reported pIC50.
6.72

Find the recorded pIC50 belonging to `CCN(CC)CCNC(=O)c1ccc(Nc2ncc(F)c(Nc3ccc(OCc4cc(C)on4)cc3)n2)cc1` and report it.
8.03

Look up pIC50 for this compound: `CN1CCN(C(=O)c2cccc(Nc3ncc(F)c(Nc4ccc(OCC#N)cc4)n3)c2)CC1`
6.25

Could you share which pIC50 value was measured for CN1CCN(C(=O)c2ccc(Nc3ncc(F)c(Nc4cccc(OCC#N)c4)n3)cc2)CC1 [Compound I-53] ?
5.85

Given `Cc1noc(COc2ccc(N(C)c3nc(Nc4cccc(C#N)c4)ncc3F)cc2)n1` , state its recorded pIC50.
5.75

Endpoint output: pIC50 of `CNC(=O)COc1cccc(Nc2ncc(F)c(Nc3ccc4c(c3)N(Cc3ccccn3)C(=O)CO4)n2)c1` . Value?
6.17

Need pIC50, item `CNC(=O)COc1cc(Nc2ncc(F)c(Nc3ccc4c(c3)NC(=O)C(C)(C)S4)n2)cc(OC)c1OC`
7.24

Need pIC50 of `Cc1noc(COc2ccc(N(C)c3nc(Nc4ccc(C(N)=O)c(Cl)c4)ncc3F)cc2)n1` , thanks.
6.04

* * *

- Test system: Ramos B-Cell Line Stimulated with IL-4 (JAK-1 and JAK-3 / Stat-6, CD23)
- EXPERIMENTAL_PROTOCOL: Assay for Ramos B-Cell Line Stimulated with IL-4 (CD23 upregulation, FACS)
- Format: cell-based
- CONDITION_DETAILS: human Ramos B cells, compound 1 hour, IL-4 50 units/mL for 20-24 hours, anti-CD23-PE FACS; read-out: Example 2 (IC50)
Threshold 200 nM: IC50 strictly smaller gives fulfilled, otherwise not fulfilled.

Item `CN1CCN(C(=O)c2ccc(Nc3ncc(F)c(Nc4cccc(OCC(N)=O)c4)n3)cc2)CC1` : IC50 beneath 200 nM, strictly?
not fulfilled

IC50 strictly < 200 nM for this compound? `Cc1cnc(Nc2cccc(C(N)=O)c2)nc1Nc1ccc2c(n1)N(C)C(=O)C(C)(C)O2`
not fulfilled

For this compound, is IC50 lower than 200 nM? `CNC(=O)COc1cccc(Nc2ncc(Br)c(Nc3ccc(OC)c(Cl)c3)n2)c1`
fulfilled

Strictly below 200 nM: is that where IC50 of CN1CCN(C(=O)c2ccc(Nc3ncc(F)c(Nc4ccc(CC#N)cc4)n3)cc2)CC1 [Compound I-73] sits?
not fulfilled

State whether 200 nM exceeds IC50 recorded for `NC(=O)c1cccc(Nc2ncc(F)c(Nc3ccc(OCc4ccccn4)cc3)n2)c1` .
not fulfilled

Is 200 nM strictly greater than the compound's reported IC50? compound: Cc1nc(COc2ccc(Nc3nc(Nc4ccc(C(=O)N5CCN(C)CC5)cc4)ncc3F)cc2)no1 [Compound I-61]
not fulfilled

is_below(IC50, 200 nM) for `CNC(=O)COc1cc(Nc2ncc(F)c(Nc3ccc4c(c3)NC(=O)CS4)n2)cc(OC)c1OC` ?
fulfilled

Hello, I'm reviewing records and need to know if IC50 of `CNC(=O)COc1cccc(Nc2ncc(F)c(Nc3ccc4c(c3)N(CC#N)C(=O)CO4)n2)c1` is below 200 nM. Could you check?
fulfilled

Lab note: IC50 threshold 200 nM. Does this compound come in strictly under it? `Cc1cnc(Nc2cccc(C(N)=O)c2)nc1Nc1ccc(OCc2ccccn2)cc1`
fulfilled

Consider the compound `CNC(=O)COc1cccc(Nc2ncc(C)c(Nc3ccc4c(c3)N(C)C(=O)CS4)n2)c1` . Is its IC50 strictly less than 200 nM?
fulfilled

Decide: IC50 of Cc1nc(COc2ccc(Nc3nc(Nc4ccc(C(=O)N5CCN(C)CC5)cc4)ncc3F)cc2)no1 [Compound I-60] strictly below 200 nM?
not fulfilled

I'd appreciate it if you could check whether `CNC(=O)COc1cc(Nc2ncc(C)c(Nc3ccc4c(n3)NC(=O)C(C)(C)O4)n2)cc(OC)c1OC` has IC50 smaller than 200 nM.
fulfilled

Given the entry `Cc1cnc(Nc2cccc(C(N)=O)c2)nc1Nc1ccc2c(c1)NC(=O)CS2` , would its reported IC50 be below 200 nM?
fulfilled

For this compound, is IC50 lower than 200 nM? `CNC(=O)COc1cccc(Nc2ncc(F)c(Nc3ccc4c(c3)N(CC#N)C(=O)CS4)n2)c1`
fulfilled

Please determine if `Cc1cnc(Nc2cccc(C(N)=O)c2)nc1Nc1ccc2c(c1)NC(=O)CO2` is below 200 nM in terms of IC50.
fulfilled

IC50 under 200 nM? Item: `CCN(CC)CCNC(=O)c1ccc(Nc2ncc(F)c(Nc3cccc(OCc4nc(C)no4)c3)n2)cc1`
fulfilled

is_below(IC50, 200 nM) for `CNC(=O)COc1cccc(Nc2ncc(C)c(Nc3cnc4c(c3)OC(F)(F)C(=O)N4)n2)c1` ?
not fulfilled

Identify whether the compound `CNC(=O)COc1cccc(Nc2ncc(F)c(Nc3cc(OC)c(OC)c(OCC#N)c3)n2)c1` records IC50 below 200 nM.
not fulfilled

Lab note: confirm whether the reported IC50 for this compound is below 200 nM, equality not counting. compound: `Cc1noc(COc2cccc(Nc3nc(Nc4ccc(CC#N)cc4)ncc3F)c2)n1`
not fulfilled

Please check: IC50 for `CNC(=O)COc1cccc(Nc2ncc(C)c(Nc3ccc4c(c3)N(C)C(=O)C(F)(F)O4)n2)c1` , strictly under 200 nM or not?
fulfilled

Check if IC50 falls below 200 nM for CC(C#N)Oc1ccc(Nc2nc(Nc3ccc(C#N)cc3)ncc2F)cc1 (stereo not shown) .
not fulfilled

Record `CNC(=O)COc1cccc(Nc2ncc(F)c(Nc3ccc(Cc4ccncc4)cc3)n2)c1` : is its IC50 strictly below 200 nM?
not fulfilled

Please check: IC50 for `Cc1cnc(Nc2cccc(C(N)=O)c2)nc1Nc1ccc2c(n1)NC(=O)C(C)(C)O2` , strictly under 200 nM or not?
fulfilled

hey, is IC50 for `CNC(=O)COc1cccc(Nc2ncc(C)c(Nc3ccc4c(c3)NC(=O)CO4)n2)c1` lower than 200 nM or not?
fulfilled

Take the compound `CNC(=O)COc1cccc(Nc2ncc(Br)c(Nc3ccc4c(c3)OCCO4)n2)c1` and say whether its IC50 is less than 200 nM.
fulfilled

Hello, is IC50 of the following compound strictly smaller than 200 nM? CN1CCN(C(=O)c2ccc(Nc3ncc(F)c(Nc4cccc(OCC#N)c4)n3)cc2)CC1 [Compound I-52]
not fulfilled

Dear reviewer, please state whether CN1CCN(C(=O)c2ccc(Nc3ncc(F)c(Nc4ccc(CC#N)cc4)n3)cc2)CC1 [Compound I-72] has IC50 strictly beneath 200 nM.
not fulfilled

Answer whether the compound `Cc1noc(COc2ccc(N(C)c3nc(Nc4ccc(C(N)=O)cc4)ncc3F)cc2)n1` has IC50 strictly less than 200 nM
not fulfilled

Find out if reported IC50 for `CNC(=O)COc1cc(Nc2ncc(F)c(Nc3ccc4c(c3)NC(=O)CO4)n2)cc(OC)c1OC` is less than 200 nM
fulfilled

Does `CNC(=O)COc1cc(Nc2ncc(F)c(Nc3ccc4c(c3)NC(=O)C(F)(F)O4)n2)cc(OC)c1OC` have IC50 strictly under 200 nM?
not fulfilled

Say whether its IC50 is strictly beneath 200 nM. Entry: `CNC(=O)COc1cc(Nc2ncc(F)c(Nc3ccc4c(n3)NC(=O)C(C)(C)O4)n2)cc(OC)c1OC`
fulfilled

Please check: IC50 for `CNC(=O)COc1cc(Nc2ncc(F)c(Nc3ccc4c(n3)NCC(C)(C)O4)n2)ccc1OC` , strictly under 200 nM or not?
fulfilled

Please let me know if `Cc1cnc(Nc2cccc(C(N)=O)c2)nc1Nc1ccc2c(c1)N(C)C(=O)CS2` shows IC50 below 200 nM.
fulfilled
